B1: WEE1 (parent)
chain: FLGSSFSPVRCGGPGDASPRGCGA

Variants of: B1
experimental.protocol: protein stability index of a GFP-peptide fusion (GPS, HEK-293T) (PSI 1-6); higher = more stable;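 note: lentivirally expressed fusions sorted by FACS into six bins by GFP to DsRed ratio, PSI derived from sequencing read proportions per bin multiplied by bin number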
experimental.setup: c terminus: a fixed tail appended
Catalogue of variants with associated protein stability index

{"columns": ["mutation.label", "protein stability index"],
 "data": [
  ["A24Q", 1.52],
  ["S7E", 2.5],
  ["A24W", 1.37],
  ["A17N", 1.99],
  ["A17Y", 1.95],
  ["R20G", 1.36],
  ["P19N", 2.45],
  ["D16M", 2.45],
  ["S5D", 2.37],
  ["V9S", 1.88],
  ["A17F", 1.54],
  ["S18M", 1.62],
  ["A24H", 1.52],
  ["L2T", 1.6],
  ["P14Y", 2.42],
  ["S4L", 1.48],
  ["P8K", 1.66],
  ["F6H", 2.48],
  ["P14W", 1.94],
  ["L2P", 2.04],
  ["G3D", 2.02],
  ["G23I", 2.35]
]}
